test: Kinetic solubility determination in PBS; assay type: physicochemical; conditions: phosphate buffered saline (PBS 1×), 21 °C, pH 7.4, aqueous buffer, kinetic from dmso stock, PBS 1X pH 7.4, 2.0% DMSO, 24 hour incubation at ambient temperature, read-out: Solubility in aqueous PBS Buffer (1X, pH 7.4), ug/mL
// reported solubility at 24 h for each item listed

Consider the following illustrative entries.
> print(dat)
                                   compound     recorded.metric        value
1  CC[C@H](C)[C@H](NC(=O)C1CC=CCC1C(=O)O)C(=O)NCC(=O)N1c2ccccc2C[C@H]1C(=O)NCc1nn[nH]n1 (single isomer, unassigned)  solubility at 24 h  > 425 µg/mL
2  CC[C@H](C)[C@H](NC(=O)C(C)(C)CCC(=O)O)C(=O)NCC(=O)N1c2ccccc2C[C@H]1C(=O)NCc1nn[nH]n1  solubility at 24 h  > 418 µg/mL

Recorded solubility at 24 h (compound `CC[C@H](C)[C@H](NC(=O)CN(C)CC(=O)O)C(=O)NCC(=O)N1c2ccccc2C[C@H]1C(=O)NCc1nn[nH]n1` ): 467 µg/mL
